Data credit: ChEMBL document CHEMBL3132817

Tested on: Bacillus subtilis
assayProcedure: Antibacterial activity against Bacillus subtilis assessed as complete growth inhibition after 24 hrs by standard microdilution assay
propertyMeasured: MIC (µM)
Entry rule: numbers only, all in µM.

Look over these answered cases.
CCCCCc1cc(OC(=O)c2ccc(O)cc2O)cc(O)c1C(=O)O ... 50
CCCCCc1cc(O)cc(OC(=O)c2c(O)cc(O)cc2CCCCC)c1 ... 3.12
CCCCCc1cc(OC(=O)c2c(O)cc(O)cc2CCCCC)cc(O)c1C(=O)O ... 14
CCCCCc1cc(O)cc(O)c1C(=O)Oc1cc(CCCCC)c2c(c1)OC(C)(C)OC2=O ... 50
CCCCCc1cc(O)cc(O)c1C(=O)Oc1ccc(C(=O)O)c(O)c1 ... 50

Qu. Need MIC of CC1(C)CCC(C)(C)c2cc(C(=O)Nc3ccc(C(=O)O)cc3)ccc21 , thanks.
Ans. 50

Qu. Similarly, Nc1ccc(/N=N/c2ccccc2)c(N)c1 ?
Ans. 400

Qu. Similarly, O=C(O)c1cc(/N=N/c2cccc([N+](=O)[O-])c2)ccc1O ?
Ans. 200

Qu. Similarly, CC1(C)CCC(C)(C)c2cc(NC(=O)c3ccc(C(=O)O)cc3)ccc21 [TAMIBAROTENE] ?
Ans. 100

====

Entries annotated with measured IC50
systemName: DNA topoisomerase 2-alpha (Homo sapiens)
Sequence (P11388 whole entry): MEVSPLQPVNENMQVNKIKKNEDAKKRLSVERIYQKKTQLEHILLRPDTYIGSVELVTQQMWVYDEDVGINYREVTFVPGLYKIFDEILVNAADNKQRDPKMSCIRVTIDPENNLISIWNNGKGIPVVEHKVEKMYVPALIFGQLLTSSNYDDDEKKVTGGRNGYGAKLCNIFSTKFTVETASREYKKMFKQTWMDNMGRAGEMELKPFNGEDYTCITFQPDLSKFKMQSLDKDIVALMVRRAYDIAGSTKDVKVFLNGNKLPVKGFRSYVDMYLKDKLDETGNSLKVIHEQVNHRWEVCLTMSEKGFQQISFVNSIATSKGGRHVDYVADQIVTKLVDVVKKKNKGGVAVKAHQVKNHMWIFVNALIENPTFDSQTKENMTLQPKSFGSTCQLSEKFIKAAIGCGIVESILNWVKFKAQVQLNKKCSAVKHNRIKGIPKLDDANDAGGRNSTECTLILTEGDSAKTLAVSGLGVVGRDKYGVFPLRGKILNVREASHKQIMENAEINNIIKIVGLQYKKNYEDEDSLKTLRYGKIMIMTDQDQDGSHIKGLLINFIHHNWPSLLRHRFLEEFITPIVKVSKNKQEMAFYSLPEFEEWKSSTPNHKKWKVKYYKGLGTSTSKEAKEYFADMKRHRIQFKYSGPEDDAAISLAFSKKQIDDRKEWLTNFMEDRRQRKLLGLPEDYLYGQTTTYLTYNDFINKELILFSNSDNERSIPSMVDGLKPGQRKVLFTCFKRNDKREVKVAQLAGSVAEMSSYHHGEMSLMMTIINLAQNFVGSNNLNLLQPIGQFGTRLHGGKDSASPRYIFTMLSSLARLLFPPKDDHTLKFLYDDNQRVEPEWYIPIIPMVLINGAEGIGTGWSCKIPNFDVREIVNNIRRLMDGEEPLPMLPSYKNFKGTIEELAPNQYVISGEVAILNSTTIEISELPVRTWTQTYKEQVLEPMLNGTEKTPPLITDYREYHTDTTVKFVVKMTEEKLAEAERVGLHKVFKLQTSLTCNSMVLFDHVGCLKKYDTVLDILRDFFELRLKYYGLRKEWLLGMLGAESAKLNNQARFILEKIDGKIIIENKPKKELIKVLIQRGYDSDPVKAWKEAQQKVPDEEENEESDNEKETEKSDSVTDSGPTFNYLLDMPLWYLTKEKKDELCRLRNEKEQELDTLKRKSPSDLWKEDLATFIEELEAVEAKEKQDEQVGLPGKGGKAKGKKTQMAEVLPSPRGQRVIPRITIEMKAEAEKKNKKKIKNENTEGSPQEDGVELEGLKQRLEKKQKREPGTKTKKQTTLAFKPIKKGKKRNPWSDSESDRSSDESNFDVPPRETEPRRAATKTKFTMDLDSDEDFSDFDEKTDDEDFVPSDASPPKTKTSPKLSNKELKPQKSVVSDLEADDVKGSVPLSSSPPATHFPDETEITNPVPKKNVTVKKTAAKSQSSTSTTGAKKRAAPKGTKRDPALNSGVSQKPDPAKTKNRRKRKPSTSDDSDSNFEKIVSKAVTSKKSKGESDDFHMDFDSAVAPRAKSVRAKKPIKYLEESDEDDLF

Look over these answered cases.
CCCCCc1cc(OC(=O)c2c(CCCCC)cc(OCc3ccccc3)cc2OCc2ccccc2)cc(O)c1C(=O)OCc1ccccc1 ... > 1000 µM
O=C(OCc1ccccc1)c1ccc(OC(=O)c2ccc(OCc3ccccc3)cc2OCc2ccccc2)cc1O ... > 1000 µM
CCCCCc1cc(O)cc(O)c1C(=O)Oc1ccc(C(=O)O)c(O)c1 ... 250 µM
CCCCCc1cc(O)cc(O)c1C(=O)Oc1cc(CCCCC)c2c(c1)OC(C)(C)OC2=O ... > 1000 µM
CCCCCc1cc(O)cc(O)c1C(=O)O ... > 1000 µM

# next compound below
Qu. Need IC50 of O=C(O)c1ccc(OC(=O)c2ccc(O)cc2O)cc1O , thanks.
Ans. > 1000 µM

====

Entries annotated with measured MIC
Tested on: Bacillus subtilis
assayProcedure: Antibacterial activity against Bacillus subtilis assessed as complete growth inhibition after 24 hrs by standard microdilution assay

CCOc1ccc(C(=O)O)c(O)c1 ... > 400 µM
O=C(O)c1ccc(OC(=O)c2ccc(O)cc2O)cc1O ... > 200 µM
CCCCCc1cc(O)cc(O)c1C(=O)O ... > 200 µM
O=C(Nc1cccc([N+](=O)[O-])c1)c1ccc([N+](=O)[O-])cc1Cl ... > 800 µM
Cc1ccc(C)c(/C=C/c2cc(C)ccc2C)c1 ... > 800 µM
CCCCCCCCCC(=O)N/N=C/c1ccc(OC(=O)c2cccc(Br)c2)cc1 ... > 800 µM
CCCCCc1cc(OC(=O)c2c(CCCCC)cc(OCc3ccccc3)cc2OCc2ccccc2)cc(O)c1C(=O)OCc1ccccc1 ... > 200 µM
CC(C)(C)CC(C)(C)c1ccc(OC(=O)c2ccccc2)cc1 ... > 800 µM

Qu. Need MIC of O=C(OCc1ccccc1)c1ccc(OC(=O)c2ccc(OCc3ccccc3)cc2OCc2ccccc2)cc1O , thanks.
Ans. > 200 µM

Qu. Similarly, COc1ccc(/C=C(\C#N)c2ccc([N+](=O)[O-])cc2)cc1 ?
Ans. > 800 µM
